Measured values drawn from ChEMBL document CHEMBL4610034 for this set.

Read-out record for Acetylcholinesterase (Electrophorus electricus): IC50

Past entries and their recorded results:
>>> value_observed("COc1ccc(C2CC(=O)Oc3c(O)cc(O)cc32)cc1 (stereo unspecified)")
"> 50 µM"
>>> value_observed("O=c1cc(-c2ccc(O)c(O)c2)c2cc(O)cc(O)c2o1")
"7 µM"
>>> value_observed("COc1cc(C2CC(=O)Oc3cc(O)ccc32)ccc1O (stereo unspecified)")
"> 50 µM"
>>> value_observed("COc1cc(C2CC(=O)Oc3cc(O)cc(O)c32)ccc1O (stereo unspecified)")
"> 50 µM"
>>> value_observed("O=c1cc(-c2ccc(O)cc2)c2ccc(O)c(O)c2o1")
"9.45 µM"

Turning to the following compound.
Test system Acetylcholinesterase (Electrophorus electricus); read-out IC50; what value for COc1ccc(C2CC(=O)Oc3ccc(O)cc32)cc1OC (stereo unspecified) ?
> 50 µM
